Below, each entry is listed with its recorded Tm.
# EXPERIMENT_DESCRIPTION: melting temperature; fluorescence melt of hairpins on a sequencing array, two-state fit, raised by 9.35 °C to match UV melts
# SETTINGS: sodium 0.088 M

{"columns": ["RESIDUES", "Tm"],
 "data": [
  ["GCAGCCGGAAACGACCGC ((.(.((....)).).))", "31.2 °C"],
  ["GATCCTCCACAGGATC ((((((....))))))", "50.8 °C"],
  ["GATCTGTTATCAGATC ((((((....))))))", "50.7 °C"],
  ["GGTTGGGGAAACTCGACC (((.(.(....).).)))", "39.5 °C"],
  ["GATCTAGACTAGATC ((((((...))))))", "40.8 °C"],
  ["GAGGGAGGAAACTCCCTC (((((((....)))))))", "62.9 °C"],
  ["GCTAAGCGAAAGCCGAGC (((..((....))..)))", "42.2 °C"],
  ["GATCTAACAGTAGATC ((((((....))))))", "36.5 °C"],
  ["GCCGAACGAAAGTTGGC (((.(((....))))))", "57.2 °C"],
  ["GATAACCCGAAAGGGATC (((..(((....))))))", "28.9 °C"],
  ["GATCAACAGGTTGATC ((((((....))))))", "51.4 °C"],
  ["GATCACTTCCGTGATC ((((((....))))))", "56.5 °C"],
  ["GTCGTACCGAAAGGTGAC (((..(((....))))))", "42.8 °C"],
  ["GATCGTGCGCACGATC ((((((....))))))", "64.6 °C"],
  ["GGCGAAGGAAACTTTGCC (((.(((....))).)))", "53.2 °C"],
  ["GCTGCGCGAAAGCCCGGC ((.(.((....)).).))", "44.1 °C"],
  ["GATCGGATACCCGATC ((((((....))))))", "56.6 °C"],
  ["GATCAGCCCACTGATC ((((((....))))))", "51.6 °C"],
  ["GATCTCCAGCGAGATC ((((((....))))))", "50 °C"],
  ["GCTCCGCGAAAGCTGGGC ((.(.((....)).).))", "44.9 °C"],
  ["GGTCGCGGAAACGCGATC (.(((((....))))).)", "63.7 °C"],
  ["GCACTCACGAAAGTGTGC (((..(((....))))))", "48.7 °C"]
]}

----------
Below, each entry is listed with its recorded Tm.
# EXPERIMENT_DESCRIPTION: melting temperature; fluorescence melt of hairpins on a sequencing array, two-state fit, raised by 9.35 °C to match UV melts
# SETTINGS: sodium 0.088 M

{"columns": ["RESIDUES", "Tm"],
 "data": [
  ["GCGATCGTTCGC ((((....))))", "50.4 °C"],
  ["GCGACCCCTCGC ((((....))))", "50.1 °C"],
  ["GCGATCCCTCGC ((((....))))", "49.8 °C"],
  ["GATACCCGAAAGGGCATC (((.(((....))).)))", "49.5 °C"],
  ["GCGAATGGAAACATTTGC ((.((((....)))).))", "49.5 °C"],
  ["GCGTAAGAACGC ((((....))))", "49.5 °C"]
]}

----------
Below, each entry is listed with its recorded folding enthalpy.
# EXPERIMENT_DESCRIPTION: folding enthalpy; higher = less favourable; fluorescence melt of hairpins on a sequencing array, two-state fit
# SETTINGS: sodium 0.088 M
ENDPOINT: folding enthalpy (kcal/mol)

{"columns": ["RESIDUES", "ENDPOINT", "U", "VALUE_MEASURED"],
 "data": [
  ["GATCTACTAGTAGATC ((((((....))))))", "folding enthalpy", "kcal/mol", -46.8],
  ["GATCTAGTGCTAGATC ((((((....))))))", "folding enthalpy", "kcal/mol", -31.1],
  ["GCCTCAACGAAAGTTGGC (((..(((....))))))", "folding enthalpy", "kcal/mol", -12.4],
  ["GTCCCTCGAAAGAGGAC (((.(((....))))))", "folding enthalpy", "kcal/mol", -14],
  ["GGGGATGAAAATCCCC ((((((....))))))", "folding enthalpy", "kcal/mol", -33.7],
  ["GTTCACGGAAACATGAAC (((((.(....).)))))", "folding enthalpy", "kcal/mol", -21.1],
  ["GTCCAACGAAAGTTCGAC (((.(((....))).)))", "folding enthalpy", "kcal/mol", -27],
  ["GTCGCTGGAAACAGTGGC (.(.(((....))).).)", "folding enthalpy", "kcal/mol", -27.8],
  ["GCGTGCGGAAACGCATGC ((.((((....)))).))", "folding enthalpy", "kcal/mol", -31],
  ["GTTTGTGGAAACACAGAC ((.((((....)))).))", "folding enthalpy", "kcal/mol", -23.6],
  ["GGCGTTGGAAACAGCGTC (.((.((....)).)).)", "folding enthalpy", "kcal/mol", -21.9],
  ["GCTTTCGAAAGAAGCAGC ((((((....)))..)))", "folding enthalpy", "kcal/mol", -12.9],
  ["GGTTCAGGAAACTAAACC ((((.((....)).))))", "folding enthalpy", "kcal/mol", -15.3],
  ["GGGTGAGGAAACTTGCCC (((..((....))..)))", "folding enthalpy", "kcal/mol", -22.9],
  ["GCCGAGCGAAAGCTGCGC ((..(((....)))..))", "folding enthalpy", "kcal/mol", -17.8],
  ["GTATGCGGAAACGTATAC ((((.((....)).))))", "folding enthalpy", "kcal/mol", -31],
  ["GTGTGGGGAAACCCGCAC (((.(((....))).)))", "folding enthalpy", "kcal/mol", -35.3],
  ["CGCTTGAAAAAGCG (((((....)))))", "folding enthalpy", "kcal/mol", -23.3],
  ["GACCACGAAAGTGGAGTC ((((((....)))..)))", "folding enthalpy", "kcal/mol", -11.5]
]}

----------
Below, each entry is listed with its recorded folding enthalpy.
# EXPERIMENT_DESCRIPTION: folding enthalpy; higher = less favourable; fluorescence melt of hairpins on a sequencing array, two-state fit
# SETTINGS: sodium 0.088 M

{"columns": ["RESIDUES", "U", "folding enthalpy"],
 "data": [
  ["GGAGGTTCGAAAGAATCC (((..(((....))))))", "kcal/mol", -14.4],
  ["GTAGAGGGAAACCTCTGC (.(((((....))))).)", "kcal/mol", -23.1],
  ["GATCAGCTCGCTGATC ((((((....))))))", "kcal/mol", -57.4],
  ["GAGGGCGAAAGCCCCCTC ((((((....)))..)))", "kcal/mol", -7.33],
  ["GGCTACGAAAGTAACGCC ((((((....)))..)))", "kcal/mol", -22.8],
  ["GACCAACGAAAGTTTGTC (((.(((....))).)))", "kcal/mol", -26.9],
  ["GATCTGTCCCCAGATC ((((((....))))))", "kcal/mol", -37.5],
  ["GCCTTCGAAAGAAAAGGC ((((((....)))..)))", "kcal/mol", -27.7],
  ["GTAATACGAAAGTACTAC (((.(((....))).)))", "kcal/mol", -16.9],
  ["GATTGACGAAAGTCCATC (((.(((....))).)))", "kcal/mol", -23],
  ["GCTATTGGAAACAATGGC ((.((((....)))).))", "kcal/mol", -36.1],
  ["GCTTGGCGAAAGCTACGC ((.(.((....)).).))", "kcal/mol", -14.8],
  ["GTTTTTCGAAAGAAGAAC (((.(((....))).)))", "kcal/mol", -32.5],
  ["GATGTAGAAATACATC ((((((....))))))", "kcal/mol", -30.3],
  ["GATCCCGGTGGGATC ((((((...))))))", "kcal/mol", -29.6],
  ["GATCAAGCAGTTGATC ((((((....))))))", "kcal/mol", -31.8],
  ["GCAGACGAAAGTCACTGC ((((((....)))..)))", "kcal/mol", -18.6],
  ["GGGACCGAAAGGTATCCC ((((((....)))..)))", "kcal/mol", -18.1],
  ["GCGTTATCGAAAGATCGC (((..(((....))))))", "kcal/mol", -26.1],
  ["GATCTGCAGTCAGATC ((((((....))))))", "kcal/mol", -34.5],
  ["GACGCTGGAAACAGCACC (..((((....))))..)", "kcal/mol", -11.1],
  ["GATCCAGGTTGGATC ((((((...))))))", "kcal/mol", -41.9],
  ["GCGTATACGAAAGTACGC (((..(((....))))))", "kcal/mol", -35.4],
  ["GGGCTAGGAAACTGGCTC (.((.((....)).)).)", "kcal/mol", -20.4],
  ["GACGGACGAAAGTCGTC (((.(((....))))))", "kcal/mol", -27.3],
  ["GTTGATGGAAACATTAAC (((.(((....))).)))", "kcal/mol", -34.1],
  ["CGCTACGGAAACGTGGCG (((.(((....))).)))", "kcal/mol", -40.1],
  ["GACGCGCCGAAAGGCGTC (((..(((....))))))", "kcal/mol", -6.51],
  ["GCTAGGCGAAAGCCCTGC ((..(((....)))..))", "kcal/mol", -12.3],
  ["GCGGGGCGAAAGCTCTGC ((.(.((....)).).))", "kcal/mol", -21.9],
  ["GCTTCGCGAAAGCCAGGC ((.(.((....)).).))", "kcal/mol", -9.39],
  ["GATCATTAGTATGATC ((((((....))))))", "kcal/mol", -31.8],
  ["GGATCGGGAAACCGGTTC (.(.(((....))).).)", "kcal/mol", -20.1],
  ["GTATGCGAAAGCATCTAC ((((((....)))..)))", "kcal/mol", -11.3],
  ["GATCTGTCGCCAGATC ((((((....))))))", "kcal/mol", -37.6],
  ["GAGAACGAAAGTTCCCTC ((((((....)))..)))", "kcal/mol", -14],
  ["GTCTGTTCGAAAGAAGAC (((..(((....))))))", "kcal/mol", -23],
  ["GATCATTCGCATGATC ((((((....))))))", "kcal/mol", -34],
  ["GGAGTCGAAAGACTATCC ((((((....)))..)))", "kcal/mol", -13.8],
  ["GGGGAAGCGAAAGCTCCC (((..(((....))))))", "kcal/mol", -17.8],
  ["GATCTGATTTCAGATC ((((((....))))))", "kcal/mol", -34.4],
  ["GTTCACGGAAACGTGGAC ((.((((....)))).))", "kcal/mol", -29.2],
  ["GGTGACGGAAACACCACC ((((..(....)..))))", "kcal/mol", -20],
  ["CCTGGGAAACCAGG (((((....)))))", "kcal/mol", -19.5],
  ["GATCCTTTATAGGATC ((((((....))))))", "kcal/mol", -40.2],
  ["GACGAAGGAAACTTCGTC (((((((....)))))))", "kcal/mol", -43.9],
  ["GATCTTGCGTAAGATC ((((((....))))))", "kcal/mol", -39.6],
  ["TAAGGGAAACCTTA (((((....)))))", "kcal/mol", -10.6]
]}
